Experiment: Protein binding (human)
Assay type: in vitro ADME
Conditions: plasma
experimental_readout: fraction unbound
Output spec: single numeric token, no unit.

CCc1cnccc1C(=O)Nc1cc2c(cc1F)NC(=O)CC2 [MBE1] : 0.527

Please look at the following molecule next.
fraction unbound for CCc1ccccc1C(=O)Nc1cc2c(cc1F)NC(=O)CC2 [MBE1.5] ?
0.137

###

Target: UniProtKB P33261
Sequence (P33261 whole entry): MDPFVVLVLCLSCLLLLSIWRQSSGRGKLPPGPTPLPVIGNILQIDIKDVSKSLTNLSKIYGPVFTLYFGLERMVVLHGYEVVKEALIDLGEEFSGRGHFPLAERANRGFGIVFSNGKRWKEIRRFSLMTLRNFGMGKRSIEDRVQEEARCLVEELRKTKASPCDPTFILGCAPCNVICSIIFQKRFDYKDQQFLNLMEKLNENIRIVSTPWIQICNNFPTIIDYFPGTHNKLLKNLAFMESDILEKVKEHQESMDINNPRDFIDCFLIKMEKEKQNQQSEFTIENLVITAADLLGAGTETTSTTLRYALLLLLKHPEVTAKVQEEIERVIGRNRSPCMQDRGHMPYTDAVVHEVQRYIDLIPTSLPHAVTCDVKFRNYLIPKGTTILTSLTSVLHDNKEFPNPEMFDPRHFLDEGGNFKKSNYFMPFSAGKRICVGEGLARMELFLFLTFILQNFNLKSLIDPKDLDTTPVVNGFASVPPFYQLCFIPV
Assay: CYP inhibition
Format: in vitro ADME
Listed below: inhibition at 10 µM values for each entry.
// return numeric value only (unit: %, not printed)

CCc1cnccc1C(=O)Nc1cc2c(cc1F)NC(=O)CC2 : 15.8

What value of inhibition at 10 µM has been recorded for this entry: CCc1ccccc1C(=O)Nc1cc2c(cc1F)NC(=O)CC2
0
